Data origin: PubChem BioAssay AID1159580

assay: chemical genetic growth profiling, strain panel (AID 1159580);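 also: tested at 20 µM; growth read once vehicle control cultures reached saturation at 30 °C; 1 = growth at the plate median or of vehicle wells; lower values mean less growth of the strain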; details: S. cerevisiae deletion strains, growth OD, locus YMR205C, strain PFK2, active compounds read low
Out of some 5,500 compounds screened, about 2,000 (36%) were called active. Another 18% or so got no clear call; they are omitted. The list shows a part of the results.
Property: normalized growth; scope: individual compounds

{"columns": ["COMPOUND", "normalized growth"],
 "data": [
  ["O=c1[nH]oc2c1CCNC2", 0.992],
  ["O=C1[C@H](CCC(O)c2ccc(F)cc2)[C@@H](c2ccc(O)cc2)N1c1ccc(F)cc1 (stereo not given in full)", 0.944],
  ["C[C@@H]1C(=O)OC2[C@H](O)C34[C@@H]5OC(=O)[C@@]3(O[C@@H]3OC(=O)[C@H](O)[C@@]34[C@H](C(C)(C)C)[C@H]5O)[C@]21O (stereo not given in full)", 0.984],
  ["NS(=O)(=O)c1cc2c(cc1Cl)NC(C(Cl)Cl)NS2(=O)=O (stereo not given)", 0.994],
  ["CCCOc1ccc(C(=O)OCCN(CC)CC)cc1N", 1.04],
  ["C=C1C(=O)OC2CC1C(OC(C)=O)C/C(C)=C/CC/C(C)=C/CC[C@]2(C)O (stereo not given in full)", 0.985],
  ["CC(C)C(=O)Nc1ccc([N+](=O)[O-])c(C(F)(F)F)c1", 1.02],
  ["CC1(C)NC(=O)N(c2ccc([N+](=O)[O-])c(C(F)(F)F)c2)C1=O", 0.972],
  ["CCCC(=O)O[C@]1(C(=O)CO)CCC2[C@@H]3CCC4=CC(=O)CC[C@]4(C)C3[C@@H](O)C[C@@]21C (stereo not given in full)", 1.02],
  ["O=S1OCC2C(CO1)C1(Cl)C(Cl)=C(Cl)C2(Cl)C1(Cl)Cl (stereo not given)", 0.91],
  ["COc1c(OC)c2occc2c2oc(=O)ccc12", 0.987],
  ["Cc1c(Cl)cccc1Nc1ccccc1C(=O)O", 0.673],
  ["Oc1ccc(Cl)cc1Cc1cc(Cl)ccc1O", 0.102],
  ["Cc1cc(-c2ccccc2)nnc1NCCN1CCOCC1", 0.965],
  ["COc1ccc2c(c1)O[C@H]1c3ccc(OC)cc3OC[C@@H]21", 1.04],
  ["O=C(Cn1ccnc1[N+](=O)[O-])NCCO", 1.03],
  ["CC(C)NCC(O)COc1cccc2ccccc12 (stereo not given)", 1.02],
  ["CCCCC(=O)Oc1ccccc1C(=O)O", 0.981],
  ["Cc1c(S(=O)(=O)O)oc2c1C(=O)C(=O)c1c-2ccc2c1CCCC2(C)C", 0.912],
  ["C=C1CCC(OC(C)=O)/C(C)=C/C[C@@H]2[C@@H]1CC2(C)C (stereo not given in full)", 0.996]
]}

---

Catalogue of normalized growth readings, one per entry.
test: chemical genetic growth profiling, strain panel (AID 1159580);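 also: tested at 20 µM; growth read once vehicle control cultures reached saturation at 30 °C; 1 = growth at the plate median or of vehicle wells; lower values mean less growth of the strain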; details: S. cerevisiae deletion strains, growth OD, locus YGR135W, strain pre9, active compounds read low
Out of some 5,500 compounds screened, about 2,000 (36%) were called active. About 18% were inconclusive and are not listed. This is one part of the list.

{"columns": ["MOLECULE", "normalized growth"],
 "data": [
  ["COC(=O)C1=CCCN(C)C1", 0.983],
  ["OCc1ccccc1O", 0.982],
  ["C=C1CCC(=O)C(C)CCC2C1CC2(C)C (stereo not drawn)", 1.01],
  ["CC(=O)Oc1c(C)cccc1C(=O)O", 1],
  ["CCCCN1CCCCC1C(=O)Nc1c(C)cccc1C (stereo not drawn)", 0.997],
  ["CCOC(=O)[C@H](CCc1ccccc1)N[C@@H](C)C(=O)N1[C@H](C(=O)O)C[C@@H]2CCC[C@@H]21", 1.02],
  ["Cc1cc(-c2ccccc2)nnc1NCCN1CCOCC1", 0.993],
  ["CC(C)(C)CC(C)(C)c1ccc(O)c(Cc2ccc(Cl)cc2Cl)c1", 1.01]
]}
